Assay: folding stability dG unfold from trypsin proteolysis; higher = more stable

SEQUENCE INPUT: SDYMPVHKMESDGKRNPNGQHEYEPKMEPVWVPVPPPPPRIRIPPEWREKLKELAEKLGHPITDDDINKISA [r9_487_TrROS]
UNIT OF MEASURE: kcal/mol
folding stability dG unfold: -0.283

SEQUENCE INPUT: SAGGSAGGSAGMPLPIKTLTEVSTVEGVGITLTALDNGLVIVEKSDGKVTVIPLSAYEAQSAGGSAGGSAGG [r11_254_JUSTAS]
UNIT OF MEASURE: kcal/mol
folding stability dG unfold: 0.643

SEQUENCE INPUT: SASESAVVEEEYTIDVTTVTPPGTPTTEPVRLTITRLPPNTVEVTLTAPDGKTVETRVIPLSVSLEELLSAG [r14_559_JUSTAS]
UNIT OF MEASURE: kcal/mol
folding stability dG unfold: 0.413

SEQUENCE INPUT: SAGGSAGGSANIDIKVEENPGNGYRKVEVTMTVDDLRELFGNEPIPPGEERQIKMTIYLPIPSAGGSAGGSA [r18_327_TrROS]
UNIT OF MEASURE: kcal/mol
folding stability dG unfold: 0.772

SEQUENCE INPUT: SAGGSAMRIKVTLENGEEIEIEIEESMTEEEVKELAEELAKKLAEELGIKEVKVEVEEVELPEEEESAGGSA [r15_33_TrROS_Hall]
UNIT OF MEASURE: kcal/mol
folding stability dG unfold: 1.68

SEQUENCE INPUT: SAGGSAGGSAPNMDWVMIPIRVPPGEPPKVKITFPDGPTREFDPGRWVWIWFPPGDPMKIEPESAGGSAGGS [r12_553_TrROS]
UNIT OF MEASURE: kcal/mol
folding stability dG unfold: 1.04

SEQUENCE INPUT: SAGGSAPSVFPFKAKFKDYDLEIKSITVYENGEVEINAIAYNPDGKKKVELNITLPYSEILDLLKSSAGGSA [r15_56_TrMRF]
UNIT OF MEASURE: kcal/mol
folding stability dG unfold: 2.35
